test system: SW-620; experiment: In vitro Inhibition on growth of human SW 620 colon carcinoma cell line; format: functional, cell-based
measurement-label: pIC50
Bear in mind: pIC50 is minus log10 of a mol/L concentration; give just that figure.

Illustrative cases are given below, each with its answer.
{"test-smiles": "COC(=O)c1ccc2c(c1)sc1c(O)nc3ccc(C(=N)NC(C)C)cc3c12", "pIC50": 4.31}
{"test-smiles": "CC(C)/N=C(/N)c1ccc2c(Cl)c(C(=O)Nc3ccccc3)sc2c1", "pIC50": 5.34}
{"test-smiles": "COC(=O)c1ccc2c(Cl)c(C(=O)Nc3ccccc3)sc2c1", "pIC50": 4.02}

Let's switch to this compound now.
So what's the measured pIC50 for this one? CC(C)/N=C(/N)c1ccc(NC(=O)c2sc3ccccc3c2Cl)cc1
4.56
